procedureSummary: Plasma pharmacokinetics after single dose (C1D1), LC-MS/MS
Type: in vivo, human
assaySetup: human, plasma, oral, 2 mg, cohort Schedule B, 2.0 mg, n = 1, read-out: Vz/F, GM (%CV)
testReadout: Vd/F
Units required after the number.

## Task Name the reported Vd/F value associated with the molecule Cc1nnn(C)c1-c1cnc2c3ccc(C(C)(C)O)cc3n([C@H](c3ccccc3)C3CCOCC3)c2c1 [BMS-986158]
## Result 23.2 L

====

procedureSummary: Plasma pharmacokinetics after multiple doses (cycle 2, steady state), LC-MS/MS
Assay type: in vivo, human
assaySetup: human, plasma, oral, 0.75 mg, multiple dose, steady state; Schedule A (5 days on, 2 days off), n = 4
testReadout: Cmax (ng/mL)
Numbers only, in ng/mL.

## Task Dear colleague, I am looking for the recorded Cmax of the following compound: Cc1nnn(C)c1-c1cnc2c3ccc(C(C)(C)O)cc3n([C@H](c3ccccc3)C3CCOCC3)c2c1 [BMS-986158]
## Result 136
